Target: T1, human IL-23 (IL-23-His-Biotin) (human, UniProt Q9NPF7 20-189; P29460 23-328, biotin label, site not stated)
T1 construct: Akesobio lot 20161209; His-tagged and biotinylated
T1 sequence (looked up) 1: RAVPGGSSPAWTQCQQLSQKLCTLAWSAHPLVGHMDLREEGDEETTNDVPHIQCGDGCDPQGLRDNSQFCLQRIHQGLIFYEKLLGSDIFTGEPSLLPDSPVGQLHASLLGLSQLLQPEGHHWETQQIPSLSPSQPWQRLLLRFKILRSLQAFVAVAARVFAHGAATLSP
T1 sequence (looked up) 2: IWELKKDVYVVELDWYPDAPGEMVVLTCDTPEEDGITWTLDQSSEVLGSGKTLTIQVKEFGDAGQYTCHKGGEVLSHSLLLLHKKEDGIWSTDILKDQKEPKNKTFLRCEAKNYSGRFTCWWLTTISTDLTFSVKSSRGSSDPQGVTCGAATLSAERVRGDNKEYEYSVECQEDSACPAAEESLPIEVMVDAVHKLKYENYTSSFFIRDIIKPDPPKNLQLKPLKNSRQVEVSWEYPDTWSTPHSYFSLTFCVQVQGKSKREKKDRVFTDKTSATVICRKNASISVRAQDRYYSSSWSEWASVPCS
Test: FACS competition, IL-23-His-Biotin 2 µg/mL on 293T-IL-12Rβ1&IL-23R cells; antibody 0.37 µg/mL
Listed here: items and their measured MFI.

>  <BINDER>
H5L9 (antibody, human IgG1, kappa, V domains shown, human IgG1 (P01857) / kappa (P01834) constant regions; also called humanized antibody H5L9) VH: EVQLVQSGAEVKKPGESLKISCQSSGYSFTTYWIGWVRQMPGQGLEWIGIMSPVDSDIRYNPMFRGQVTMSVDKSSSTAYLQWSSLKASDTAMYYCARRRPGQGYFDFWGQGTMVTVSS VL: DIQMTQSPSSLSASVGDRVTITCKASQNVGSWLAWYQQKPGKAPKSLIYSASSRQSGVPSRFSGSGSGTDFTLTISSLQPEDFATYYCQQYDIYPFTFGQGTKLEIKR

>  <MFI>
206 MFI

$$$$
>  <BINDER>
H5L10 (antibody, human IgG1, kappa, V domains shown, human IgG1 / kappa constant regions; also called humanized antibody H5L10) VH: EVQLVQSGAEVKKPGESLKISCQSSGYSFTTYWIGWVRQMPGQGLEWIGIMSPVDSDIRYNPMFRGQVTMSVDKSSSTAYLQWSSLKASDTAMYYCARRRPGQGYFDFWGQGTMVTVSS VL: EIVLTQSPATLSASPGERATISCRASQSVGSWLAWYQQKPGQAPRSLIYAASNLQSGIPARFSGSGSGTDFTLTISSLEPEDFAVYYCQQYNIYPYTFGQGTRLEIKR

>  <MFI>
169 MFI

$$$$
>  <BINDER>
H5L11 (antibody, human IgG1, kappa, V domains shown, human IgG1 / kappa constant regions; also called humanized antibody H5L11) VH: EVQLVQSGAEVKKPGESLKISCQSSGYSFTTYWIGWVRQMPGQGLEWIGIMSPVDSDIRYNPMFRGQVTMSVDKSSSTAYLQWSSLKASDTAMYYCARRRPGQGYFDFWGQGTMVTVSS VL: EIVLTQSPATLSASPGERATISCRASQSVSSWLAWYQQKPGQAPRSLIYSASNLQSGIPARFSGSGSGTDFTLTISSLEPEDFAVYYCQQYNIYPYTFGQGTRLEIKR

>  <MFI>
179 MFI

$$$$

Provenance of the data: patent US20220298235A1
